Would you mind telling me the reported growth inhibition of each entry?
- EXPERIMENTAL_PROTOCOL: NCI Yeast Anticancer Drug Screen. Data for the rad18 strain (AID 177)
- TEST_SETTINGS: S. cerevisiae rad18 mutant growth inhibition; at 100.0 µM; hits give high values
The panel holds about 79,000 compounds, 15% with a hit somewhere; the sample as a whole holds those more often.
Give bare numbers, in %.

Worked examples follow.
# MOLECULAR_STRING, MEASUREMENT_UNIT, growth inhibition
data = [
    ("COc1cccc(/C=C2\\S/C(=N/Nc3nc(-c4ccc([N+](=O)[O-])cc4)cs3)NC2=O)c1O", "%", 92),
    ("CC(C)OP(=O)(OC(C)C)C(=NCCO)NNc1ccc([N+](=O)[O-])cc1", "%", 91),
    ("O=S(=O)(NNc1ccccc1)c1ccccc1", "%", 91),
]

compound O=[N+]([O-])[O][Sn]([O][Sn]([O][N+](=O)[O-])([c]1ccccc1)[c]1ccccc1)([c]1ccccc1)[c]1ccccc1 , growth inhibition observed: 90

* * *

- EXPERIMENTAL_PROTOCOL: NCI Yeast Anticancer Drug Screen. Data for the mlh1 strain (AID 171);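 also: 0% = growth of vehicle-treated control cultures of the same strain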
- TEST_SETTINGS: S. cerevisiae mlh1 strain growth inhibition; at 11.0 µM; hits give high values
Compounds without any hit were thinned out: in the full panel of roughly 79,000, 15% have a hit.
Would you mind telling me the reported growth inhibition of each entry?
One number for each entry, in %.

Worked examples follow.
# MOLECULE, growth inhibition / %
rows = [
    ("Cc1ccc(NC(=O)CCC(=O)C(C)C(=O)c2ccccc2)c(C)c1 (stereo unspecified)", -1),
    ("O=C1C=C(Br)C(=O)c2ccccc21", 98),
    ("NCCCSc1ccccc1", -2),
    ("CC(=O)O/N=C1C=C/C(=C(/C#N)c2ccccc2)C=C/1C", 53),
    ("O/N=c1/ccn(O)c2ccccc12", 30),
    ("COC1/C=C\\C=C(/C)C(=O)NC2=CC(=O)C(=O)C(=C2O)CC(C)CC(OC)C(O)C(C)/C=C(\\C)C1OC(N)=O (stereo unspecified)", 89),
]

Report growth inhibition for each item below.
1. C[C@H](CCC1=NC(C)(C)CO1)C1CCC2[C@@H]3C(O)C[C@@H]4CC(O)CC[C@]4(C)C3CC[C@@]21C (stereo partly specified)
2. S=C(NCc1ccccn1)N/N=C/c1ccccn1
3. O=C1CSC(c2ccccc2)N1c1ccc(-c2ccc(-n3c(-c4ccccc4)nc4ccccc4c3=O)cc2)cc1 (stereo unspecified)

Result ::
[-6, 98, -1]

Report growth inhibition for each item below.
1. Brc1ccc(B2Nc3ccccc3N2)cc1
2. CCCCS/C(=C(/C#N)C(N)=O)c1cc2c([nH]1)CCCC2

Result ::
1. 17
2. -30

* * *

- EXPERIMENTAL_PROTOCOL: NCI Yeast Anticancer Drug Screen. Data for the rad18 strain (AID 177)
- TEST_SETTINGS: S. cerevisiae rad18 mutant growth inhibition; at 100.0 µM; hits give high values
About 79,000 compounds went through this panel and 15% of them were active in at least one assay; those are over-represented in the sample as a whole.
QUANTITY: growth inhibition (%)
Numbers only, in %.

Worked examples follow.
# MOLECULE, growth inhibition (%)
measured = [
    ("CC(C)S(=O)(=O)/C=C\\S(=O)(=O)C(C)C", 93),
    ("O=c1c2ccccc2nc(-c2ccc(Cl)cc2)n1O", 95),
]

Read the next record carefully.
molecule COC1/C=C\C=C(/C)C(=O)NC2=CC(=O)C(=O)C(=C2O)CC(C)CC(OC)C(O)C(C)/C=C(\C)C1OC(N)=O (stereo not drawn) , growth inhibition observed: 95

* * *

- EXPERIMENTAL_PROTOCOL: NCI Yeast Anticancer Drug Screen. Data for the sgs1 strain (AID 173);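 also: 0% = growth of vehicle-only control cultures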
- TEST_SETTINGS: S. cerevisiae sgs1 mutant, at 3.7 µM, hits give high values
This is part of a sample that, as a whole, favours compounds with a hit. Of some 79,000 tested, about 15% had one in any assay.
Would you mind telling me the reported growth inhibition of each entry?
One number for each entry, in %.

Worked examples follow.
# MOLECULE, MEASUREMENT_UNIT, growth inhibition
records = [
    ("O=C1C=C(Br)C(=O)c2ccccc21", "%", 19),
    ("Fc1ccc(Nc2ccc3ccccc3c2)cc1", "%", 0),
    ("CC(C)=CCC/C(C)=C/CN1C(=O)C=CC1=O", "%", 48),
    ("CC1=CC(C)(C)SC(SSSC2=NC(C)=CC(C)(C)S2)=N1", "%", -2),
    ("O=NC1c2cccc3cccc(c23)C1N=O (centres undefined)", "%", 23),
]

Report growth inhibition for each item below.
1. Nc1cc(Cl)ccc1Nc1ccccc1
2. CC(C)C(c1ccccc1)c1ccccc1
3. COc1cc(NCCCCNCC(C)(C)C)c2ncccc2c1
4. O=C(Nn1c(-c2ccccc2)nc2ccccc2c1=O)c1ccc(CS)cc1
5. O=C(c1cc(=O)c2ccc(O)cc2o1)c1ccc(Cl)cc1Cl
6. CC1(C2CC2)C(C#N)(C#N)C1(C#N)C#N
7. CCC(/C=C/c1ccccc1)=N\Nc1ccc(Cl)cc1
8. COC(=O)C(Cl)(Cl)N=Nc1c(Cl)cc(Cl)c(C)c1Cl

Result ::
-36
-3
-2
8
-14
6
-4
88

Report growth inhibition for each item below.
1. C=CC(C)(C)N1C(=O)C(C(C)=O)=C(O)C1Cc1c[nH]c2ccccc12 (centres undefined)
2. COc1cc(OC)c(CSCC(NC(=O)OCC2c3ccccc3-c3ccccc32)C(=O)O)c(OC)c1 (centres undefined)
3. CCCN=Cc1cc(Cc2ccc(O)c(C=NCCC)c2)ccc1O
4. COc1ccc(C(=O)/C=C\c2ccc(Cl)c(Cl)c2)cc1
5. O=C(C#Cc1ccccc1)/C=C/c1ccccc1
6. COc1cc([N+](=O)[O-])c2ncccc2c1Br
7. OB(O)c1ccccc1C#Cc1ccccc1
8. O=C1C2=C(c3ccccc31)C(c1ccccc1)N1C(=O)CSC1=N2 (centres undefined)

Result ::
[0, 9, 89, 5, 2, 32, -1, -14]

* * *

Would you mind telling me the reported growth inhibition of each entry?
- EXPERIMENTAL_PROTOCOL: NCI Yeast Anticancer Drug Screen. Data for the wt1 strain (AID 149);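 also: 0% = growth of vehicle-treated wt1 cultures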
- TEST_SETTINGS: S. cerevisiae wt1 strain (SPY 50644) growth inhibition; at 3.7 µM; hits give high values
This is part of a sample that, as a whole, favours compounds with a hit. Of some 79,000 tested, about 15% had one in any assay.
Answers are plain numbers, in %.

Worked examples follow.
# COMPOUND, growth inhibition [%]
data = [
    ("CCO/C=C1\\SC(=S)N(c2ccc(OCC)cc2)C1=O", -51),
    ("COC(=O)c1cnc(Cl)c([N+](=O)[O-])c1", 15),
    ("O=[N+]([O-])/C=C/c1cc2ccc3ccccc3c2[nH]1", 19),
]

Report growth inhibition for each item below.
1. CCOc1ccc2nc3ccccc3c(N)c2c1
2. Cc1ccc(S(=O)(=O)N/N=C/C(Br)=C(/Br)C(=O)O)cc1
3. O=C(O)c1ccccc1C(=O)OC1CCc2ccccc2C1 (stereo unspecified)

Result ::
1. 13
2. 28
3. -7

Report growth inhibition for each item below.
1. CCOP(=O)(OCC)/C(C#N)=C/c1cccc(Oc2ccccc2)c1
2. CC(C)CCC[C@@H](C)[C@H]1CC[C@H]2[C@@H]3CC[C@H]4C[C@H](N)CC[C@]4(C)[C@H]3CC[C@]12C
3. c1ccc2c(c1)N=C1CCCC3CCCC123 (stereo unspecified)
4. Cc1c(C(=O)/C=C/c2ccccc2[N+](=O)[O-])[n+](=O)c2ccccc2n1[O-]
5. CC(=O)/C=C/c1cc([N+](=O)[O-])ccc1O
6. CCC(/C=C/c1ccccc1)=N\Nc1ccc(Cl)cc1

Result ::
1: -26; 2: 0; 3: 2; 4: 22; 5: -33; 6: -2

Report growth inhibition for each item below.
1. COc1cc([N+](=O)[O-])c2ncccc2c1Br
2. O=[N+]([O-])c1ccc2[nH]c3c(-c4ccccc4)nccc3c2c1
3. Nc1ccc2c(c1)C(=O)c1c(F)cccc1-2
4. COC1/C=C\C=C(/C)C(=O)NC2=CC(=O)C(=O)C(=C2O)CC(C)CC(OC)C(O)C(C)/C=C(\C)C1OC(N)=O (stereo unspecified)
5. CCOC(=O)Nc1ccc(C)c(NC(=O)OCC)c1

Result ::
[-7, -8, -6, -17, 13]

Report growth inhibition for each item below.
1. O=C(NOC(=O)c1ccc([N+](=O)[O-])cc1)c1ccc(Cl)cc1
2. CC(C)Cc1ncc(CCCN=C(N)N)[nH]c1=O
3. O=C(NO)c1coc2ccccc2c1=O
4. S=C1N(c2ccc(Cl)cc2)C2=C(N=Nc3ccccc3)C(=Nc3ccccc3S2)N1c1ccccn1
5. O=C(O)c1c2ccc(Cl)cc2nc2[nH]c(=O)[nH]c(=O)c12

Result ::
[-31, 1, -3, -3, -35]

Report growth inhibition for each item below.
1. COc1cc([C@@H]2c3cc4c(cc3[C@@H](NC(=O)NO)[C@H]3COC(=O)[C@H]23)OCO4)cc(OC)c1O
2. CC(C(=O)N1C(=O)N(C(=O)C(C)C(O)c2ccccc2)C2CCCCC21)C(O)c1ccccc1 (stereo unspecified)
3. C/C(=N\OCC(O)CNCCSCc1ccccc1)c1ccccc1Cl (stereo unspecified)
4. CC1C(c2ccccc2)SC(=N)N1C (stereo unspecified)
5. O=C1CSC(c2ccccc2)N1c1ccc(-c2ccc(-n3c(-c4ccccc4)nc4ccccc4c3=O)cc2)cc1 (stereo unspecified)
6. CCN(CC)CCC(=O)Nc1ccc2sc3ccccc3c(=O)c2n1
7. CNCC(C)CNC
8. COC1=CCC23C(=O)C=CC(=O)C2(C1)C(=O)c1ccccc1C3=O (stereo unspecified)

Result ::
1. -2
2. -1
3. 0
4. -1
5. 0
6. -2
7. -14
8. -24

compound O=C(Cc1ccccc1)NNc1nc(NNC(=O)c2ccncc2)nc(Nc2ccc([N+](=O)[O-])cc2)n1 , growth inhibition observed: 3

src = PubChem BioAssay (NCI)
